target: complex of human CDK4 and cyclin D3 (Homo sapiens); construct: made in house; host or cells: insect cells, co-infected with baculovirus; test: Inhibition of CDK4/cyclin D retinoblastoma kinase activity (D-type cyclin is D3); type: biochemical; conditions: superscript a: D-type cyclin is D3; apparent Ki; read-out: Ki CDK 4/D
Sequence (P11802 whole entry): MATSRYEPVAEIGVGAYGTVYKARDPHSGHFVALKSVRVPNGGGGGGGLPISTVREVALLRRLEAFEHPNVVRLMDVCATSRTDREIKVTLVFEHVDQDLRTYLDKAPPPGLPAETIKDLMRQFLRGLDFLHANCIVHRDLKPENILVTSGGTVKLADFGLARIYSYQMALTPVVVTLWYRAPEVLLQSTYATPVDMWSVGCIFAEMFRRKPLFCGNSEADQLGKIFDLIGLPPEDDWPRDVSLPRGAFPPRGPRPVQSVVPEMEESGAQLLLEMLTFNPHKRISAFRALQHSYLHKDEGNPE
Sequence (P30281 whole entry partner): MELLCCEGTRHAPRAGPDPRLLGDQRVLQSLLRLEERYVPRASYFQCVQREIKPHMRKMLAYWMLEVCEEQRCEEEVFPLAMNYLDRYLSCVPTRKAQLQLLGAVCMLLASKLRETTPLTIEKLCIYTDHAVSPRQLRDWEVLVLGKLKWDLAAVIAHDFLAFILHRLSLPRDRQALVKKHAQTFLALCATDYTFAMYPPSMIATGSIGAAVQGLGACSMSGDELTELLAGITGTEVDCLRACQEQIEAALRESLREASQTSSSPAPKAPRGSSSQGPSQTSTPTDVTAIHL
Reported Ki by item:
Give the number; nM is assumed, so skip it.

Prompt: Look up and state reported Ki for Nc1nc(Nc2ccc(S(N)(=O)=O)cc2)sc1C(=O)c1ccc2c(c1)CCC(=O)N2
Completion: 85

Prompt: Look up and state reported Ki for Cc1ccc(Nc2nc(N)c(C(=O)c3ccccc3)s2)cc1
Completion: 1500

Prompt: Look up and state reported Ki for Cc1cc(C(=O)c2sc(Nc3ccc(N4CCN(C)CC4)cc3)nc2N)c(C)s1
Completion: 27

Prompt: Look up and state reported Ki for Cc1ccsc1C(=O)c1sc(Nc2ccc(N3CCN(C(=O)OC(C)(C)C)CC3)cc2)nc1N
Completion: 190

Prompt: Look up and state reported Ki for Cc1c(C(=O)c2sc(Nc3ccc4nc[nH]c4c3)nc2N)ncn1C
Completion: 4800

Prompt: Look up and state reported Ki for Nc1ccc(Nc2nc(N)c(C(=O)c3ccccc3)s2)cc1
Completion: 800

====

tested on: MCF-7; assay: Inhibition of cell growth, MTT assay, MCF-7; format: cell-based; conditions: Homo sapiens, MCF7; MCF-7, MTT assay
property-label: IC90

// solved cases for IC90 follow
Prompt: Look up and state reported IC90 for Cc1ccsc1C(=O)c1sc(Nc2ccc(S(N)(=O)=O)cc2)nc1N [C(48)]
Completion: > 25 µM

Prompt: Look up and state reported IC90 for Cc1c(C(=O)c2sc(Nc3ccc4nc[nH]c4c3)nc2N)sc2ccccc12 [C(8)]
Completion: > 25 µM

# evaluate next
Prompt: Look up and state reported IC90 for Cc1cc(C(=O)c2sc(Nc3ccc(S(N)(=O)=O)cc3)nc2N)c(C)s1 [C(50)]
Completion: > 25 µM

====

biological target: complex of human CDK4 and cyclin D3 (Homo sapiens); construct: made in house; host or cells: insect cells, co-infected with baculovirus; experiment: Inhibition of CDK4/cyclin D retinoblastoma kinase activity (D-type cyclin is D3); format: biochemical; conditions: superscript a: D-type cyclin is D3; apparent Ki; read-out: Ki CDK 4/D
property-label: pKi
Scale note: pKi = -log10(concentration in M).

Prompt: // fetch pKi for Cc1cc([N+](=O)[O-])sc1C(=O)c1sc(Nc2ccc(N3CCN(C)CC3)cc2)nc1N ; system: complex of human CDK4 and cyclin D3 (Homo sapiens)
Completion: 7.39

Prompt: // fetch pKi for Nc1nc(Nc2ccccc2)sc1C(=O)c1cccc([N+](=O)[O-])c1 ; system: complex of human CDK4 and cyclin D3 (Homo sapiens)
Completion: 6.18

---
Prompt: // fetch pKi for COc1ccc(Nc2nc(N)c(C(=O)c3ccccc3[N+](=O)[O-])s2)cc1 ; system: complex of human CDK4 and cyclin D3 (Homo sapiens)
Completion: 7.44

====

Reported log10 IC50 by item:
system: U2-OS; test: Inhibition of cell growth, MTT assay, U2-OS; assay type: cell-based; settings: Homo sapiens, U2OS
Hello, just confirming the data are log10 of IC50 with units of µM.

Prompt: // fetch log10 IC50 for C[C@@H]1CN(c2ccc(Nc3nc(N)c(C(=O)c4c(F)cccc4F)s3)cc2)C[C@H](C)N1 ; system: U2-OS
Completion: 0.00

Prompt: // fetch log10 IC50 for Nc1nc(Nc2ccc3nc[nH]c3c2)sc1C(=O)c1c(Cl)cncc1Cl ; system: U2-OS
Completion: 1.20

Prompt: // fetch log10 IC50 for Nc1nc(Nc2ccc3nc[nH]c3c2)sc1C(=O)c1c(Cl)cccc1Cl ; system: U2-OS
Completion: 1.18

Prompt: // fetch log10 IC50 for Cc1cc(C(=O)c2sc(Nc3ccc(S(N)(=O)=O)cc3)nc2N)c(C)s1 ; system: U2-OS
Completion: 0.30

Prompt: // fetch log10 IC50 for Cc1ccc(C(=O)c2sc(Nc3ccc4nc[nH]c4c3)nc2N)c(C)c1 ; system: U2-OS
Completion: 0.81

Prompt: // fetch log10 IC50 for Nc1nc(Nc2ccc3nc[nH]c3c2)sc1C(=O)c1c(Cl)cc(Br)c(N)c1Cl ; system: U2-OS
Completion: 1.28
